- Assay name: A549 cell viability effects, profiling panel, calcein-AM fluorescence, 48 h, basal (AID 1162); note: test concentration not given here
- Cond: higher = more signal
# binning rule on z-score: c1 (below -0.3), c2 (-0.3 to below 0.2), c3 (0.2 or more)

>>> class_name("CCN1C(=O)[C@@H]2[C@H]3C(=CC[C@@H]2C1=O)C1(OCCCO1)[C@H]1O[C@H]1[C@H]3O")
"c1"
>>> class_name("CC(CCN1CCCCc2nc(C)c(C)cc21)=NO[C@H](C)c1cn([C@H](CO)Cc2ccccc2)nn1")
"c3"
>>> class_name("CO[C@H]1COC(=O)[C@@H]2CCCN2C(=O)CC=C[C@@H](C)[C@H](OC)COC(=O)[C@@H](OCc2ccccc2)C=C[C@@H]1C")
"c1"
>>> class_name("C[C@H]1Cc2c(COc3ccccc3)nc3c(c2CO1)CN(CCOc1ccccc1)CC3")
"c3"
>>> class_name("C[n+]1ccc(-c2ccc(CO)cc2)cc1")
"c1"
>>> class_name("COc1cccc([C@H]2Oc3ccc(OC)cc3C(=NO[C@H](C)c3cn([C@H](CO)Cc4ccccc4)nn3)[C@@H]2O)c1")
"c2"
>>> class_name("C#CCCCON=C1C[C@@H](O)[C@@H](O)[C@@H]2[C@@H]3C(=O)N(C(C)(C)C)C(=O)[C@@H]3CC[C@@H]12")
"c2"
>>> class_name("C[C@@H](c1ccccc1)N1C(=O)[C@H]2[C@H]3[C@H](O)[C@H](O)CC(=O)[C@H]3CC[C@H]2C1=O")
"c3"
>>> class_name("CO[C@H](C1CCCCC1)[C@H](C)C=CCC(=O)OCCCc1ccccc1")
"c2"
>>> class_name("C=COC[C@@H]1CN2[C@@H](CC[C@@H](C)[C@@H]2c2ccc(Br)cc2)C(=O)O1")
"c2"
>>> class_name("CCN1C(=O)[C@H]2[C@H]3[C@H](O)[C@H](O)CC(=NNC(=O)OCc4ccc(OC)cc4)[C@@H]3CC[C@H]2C1=O")
"c2"
>>> class_name("COC(=O)[C@@H]1CC[C@H](C)[C@@H](c2ccc(C)cc2)N1C(=O)c1ccc(C=NO[C@@H](C)c2cn([C@H](CO)Cc3ccccc3)nn2)cc1")
"c3"
>>> class_name("CCOC(=O)NN=C1C[C@@H](O)[C@@H](O)[C@@H]2[C@@H]3C(=O)N(Cc4ccccc4)C(=O)[C@@H]3CC[C@H]12")
"c3"
>>> class_name("CCOC(=O)[C@H](CC(C)C)NC(=O)CCC1CC(OC(=O)NCCc2ccc(F)cc2)CC2(CCCC(COC(=O)NCCOc3ccccc3)O2)O1 (stereo partly specified)")
"c1"
>>> class_name("CCOC(=O)[C@H](CC(C)C)NC(=O)CCC1CC(OC(=O)NCCc2ccc(F)cc2)CC2(CCCC(COC(=O)NCC3CCCCC3)O2)O1 (stereo partly specified)")
"c1"
>>> class_name("CC(C)(C)N1C(=O)[C@H]2[C@H]3[C@H](O)[C@H](O)CC(=NO[C@@H]4O[C@H](CO)[C@@H](O)[C@H](O)[C@H]4O)[C@H]3CC[C@H]2C1=O")
"c1"

* * *

- Tested on: Torsin-1A-interacting protein 1 (Homo sapiens)
- Assay name: LAP1 binders from COS7 cell lysate, primary screen, small-molecule microarray, 635/667 nm fluorescence (AID 1116)
- Cond: COS7-hLAP1 lysate binding, 635 nm fluorescence, higher = more signal
Recorded metric: composite z-score

>>> measured_value("CC(=O)OC[C@H]1OC(ON=CC[C@@H]2C=C[C@H](OC(C)=O)[C@@H](COC(C)=O)O2)[C@H](OC(C)=O)[C@@H](OC(C)=O)[C@@H]1OC(C)=O (some centres undefined)")
-0.0191
>>> measured_value("Cc1ccc(S(=O)(=O)n2c3ccccc3c3nnc(C(=O)c4ccccc4)nc32)cc1")
0.302
>>> measured_value("CCOC(=O)[C@H](CC(C)C)NC(=O)CCC1CC(OC(=O)NCc2ccc3c(c2)OCO3)CC2(CCCC(COC(=O)NCC3CCCCC3)O2)O1 (some centres undefined)")
0.711
>>> measured_value("COC(=O)[C@H](C)NC(=O)CCC1CC(OC(=O)NCc2cccc3ccccc23)CC2(CCCC(COC(=O)NCC(c3ccccc3)c3ccccc3)O2)O1 (some centres undefined)")
0.345

All figures here come from PubChem BioAssay.
